Molecular target: isolated recombinant JAK1 kinase domain (Homo sapiens, UniProt P23458)
Construct: The activity of the isolated recombinant JAK1 and JAK2 kinase domain was measured
Sequence (P23458 875-1153 limits assumed): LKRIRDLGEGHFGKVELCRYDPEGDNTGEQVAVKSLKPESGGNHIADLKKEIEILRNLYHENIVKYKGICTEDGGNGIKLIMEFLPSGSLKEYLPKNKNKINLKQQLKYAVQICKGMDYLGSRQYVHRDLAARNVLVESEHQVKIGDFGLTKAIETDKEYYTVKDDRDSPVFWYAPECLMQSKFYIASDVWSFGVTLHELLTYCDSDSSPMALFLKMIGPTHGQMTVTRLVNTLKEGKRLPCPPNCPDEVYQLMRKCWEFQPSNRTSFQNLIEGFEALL
Assay: JAK1 enzyme assay (Caliper LabChip, Ki)
Assay type: biochemical
Conditions: recombinant JAK1 kinase domain, 25 μM ATP
pKi: −log10 of the molar value.
observed.property: pKi

O=C(Nc1cn(CC(=O)N2CCN(CC3CCOCC3)CC2)nc1-c1cc(SC2CC2)ccc1OC(F)F)c1cnn2cccnc12 [Example 165] | 9.40

(A) CSc1ccc(OC(F)F)c(-c2nn(CC(=O)N3CCC(N4CCC[C@@H](C#N)C4)CC3)cc2NC(=O)c2cnn3cccnc23)c1 [Example 58]
(B) CSc1ccc(OC(F)F)c(-c2nn(CC(=O)N3CCC(N(CCN4CCOCC4)C4COC4)CC3)cc2NC(=O)c2cnn3cccnc23)c1 [Example 92]
Q: Parameter check: reported pKi is higher for which label, A or B ? When you have decided, please share the label of that item.
Ans: A
(A: 9.70, B: 9.21)

* * *

Target: isolated recombinant JAK1 kinase domain (Homo sapiens, UniProt P23458)
Construct: The activity of the isolated recombinant JAK1 and JAK2 kinase domain was measured
Test: JAK1 enzyme assay (Caliper LabChip, Ki)
Format: biochemical
Conditions: recombinant JAK1 kinase domain, 25 μM ATP
pKi: −log10 of the molar value.
observed.property: pKi

(I) CSc1ccc(OC(F)F)c(-c2nn(C[C@H]3CCCN3C)cc2NC(=O)c2cnn3cccnc23)c1
(II) CC(C)(C#N)CNC1CCN(C(=O)Cn2cc(NC(=O)c3cnn4cccnc34)c(-c3cc(SC4COC4)ccc3OC(F)F)n2)CC1
Q: Given I and given II , which shows the smaller recorded pKi? When you have decided, please share the label of that item.
Ans: II
(II: 9.19, I: 9.66)

(I) CSc1ccc(OC(F)F)c(-c2nn(CC(=O)N3CCC(NCC(C)C#N)CC3)cc2NC(=O)c2cnn3cccnc23)c1 (stereo not shown)
(II) CCN1CCN(C(=O)Cn2cc(NC(=O)c3cnn4cccnc34)c(-c3cc(SC)ccc3OC(F)F)n2)CC1
Q: Given I and given II , which shows the smaller recorded pKi? When you have decided, please share the label of that item.
Ans: II
(II: 9.31, I: 9.54)

* * *

Target: isolated recombinant JAK1 kinase domain (Homo sapiens, UniProt P23458)
Construct: The activity of the isolated recombinant JAK1 and JAK2 kinase domain was measured
Assay: JAK1 enzyme assay (Caliper LabChip, Ki)
Format: biochemical
Conditions: recombinant JAK1 kinase domain, 25 μM ATP
observed.property: Ki (pM)

Here is how some compounds turned out for Ki.
CC(C)Sc1ccc(OC(F)F)c(-c2nn(CC(=O)N3CCC(N4CCN(C)C(=O)C4)CC3)cc2NC(=O)c2cnn3cccnc23)c1 | 400
CC(C)Sc1ccc(OC(F)F)c(-c2nn(CC(=O)N3CCC(CN4CCOCC4)CC3)cc2NC(=O)c2cnn3cccnc23)c1 | 490

(a) CC(C)Sc1ccc(OC(F)F)c(-c2nn(C[C@H]3CCCN3)cc2NC(=O)c2cnn3cccnc23)c1
(b) CC(C)Sc1ccc(OC(F)F)c(-c2nn(Cc3cn(C4CCN(C5CCOC5)CC4)nn3)cc2NC(=O)c2cnn3cccnc23)c1 (stereo not shown)
Q: Parameter check: reported Ki is higher for which label, a or b ? When you have decided, please share the label of that item.
Ans: a
(a: 640 pM, b: 360 pM)
